// provenance: ChEMBL document CHEMBL5131488

experiment_summary: Permeability of the compound across apical to basolateral side in human Caco-2 cells at 25 uM incubated for 2 hrs by LC/MS/MS analysis
Type: ADME, cell-based
test_conditions: read-out: permeability
metric: Papp A→B at 2 h, 25 µM (×10⁻⁶ cm/s)

[
  {
    "compound": "C=CCOc1ccc(C2CC(=O)Nc3nc(N)[nH]c(=O)c32)cc1OC (stereo not drawn)",
    "readout_units": "×10⁻⁶ cm/s",
    "Papp A→B at 2 h, 25 µM": 0.3
  }
]

I: Nc1nc2c(c(=O)[nH]1)C(c1cccc(OC(F)(F)F)c1)CC(=O)N2 (stereo not drawn)
II: CCOc1cccc(C2CC(=O)Nc3nc(N)[nH]c(=O)c32)c1 (stereo not drawn)
stdin: I'm curious whether I or II has the smaller Papp A→B at 2 h, 25 µM number. Which is it? # respond with the chosen item's label
stdout: II
(II: 0.3 ×10⁻⁶ cm/s, I: 1.6 ×10⁻⁶ cm/s)

* * *

experiment_summary: Metabolic stability in human liver microsomes assessed as parent compound remaining in presence of NADPH at 0.5 uM measured after 10 mins by LC-MS/MS analysis
Type: ADME, Microsome
test_conditions: read-out: Stability
metric: remaining at 10 min, 0.5 µM (%)

[
  {
    "compound": "Nc1nc2c(c(=O)[nH]1)C(c1cccc(OC(F)(F)F)c1)CC(=O)N2 (stereo not drawn)",
    "remaining at 10 min, 0.5 µM / %": 95
  },
  {
    "compound": "C=CCOc1ccc(C2CC(=O)Nc3nc(N)[nH]c(=O)c32)cc1OC (stereo not drawn)",
    "remaining at 10 min, 0.5 µM / %": 93
  },
  {
    "compound": "CCOc1cccc(C2CC(=O)Nc3nc(N)[nH]c(=O)c32)c1 (stereo not drawn)",
    "remaining at 10 min, 0.5 µM / %": 93
  }
]

* * *

experiment_summary: Plasma protein binding in mouse measured after 5 hrs by LC-MS/MS analysis
Assay type: ADME, cell-free
test_conditions: read-out: PPB (converted)
metric: fraction unbound at 5 h

[
  {
    "compound": "CCOc1cccc(C2CC(=O)Nc3nc(N)[nH]c(=O)c32)c1 (stereo not drawn)",
    "metric": "fraction unbound at 5 h",
    "val": 0.474
  }
]

a: Nc1nc2c(c(=O)[nH]1)C(c1cccc(OC(F)(F)F)c1)CC(=O)N2 (stereo not drawn)
b: C=CCOc1ccc(C2CC(=O)Nc3nc(N)[nH]c(=O)c32)cc1OC (stereo not drawn)
stdin: Larger number for fraction unbound at 5 h: a , or b ? # respond with the chosen item's label
stdout: b

* * *

experiment_summary: Cmax in C57BL/6J mouse at 30 mg/kg, ip measured up to 24 hrs by LC-MS/MS analysis
Assay type: ADME, organism-based
Parameters: time < 24 hrs, dose 30 mg/kg, route ip
test_conditions: in vivo
metric: Cmax (µM)

[
  {
    "molecule": "CCOc1cccc(C2CC(=O)Nc3nc(N)[nH]c(=O)c32)c1 (stereo not drawn)",
    "readout_units": "µM",
    "val": 29.3
  }
]

a: Nc1nc2c(c(=O)[nH]1)C(c1cccc(OC(F)(F)F)c1)CC(=O)N2 (stereo not drawn)
b: C=CCOc1ccc(C2CC(=O)Nc3nc(N)[nH]c(=O)c32)cc1OC (stereo not drawn)
stdin: I'm curious whether a or b has the smaller Cmax number. Which is it? # respond with the chosen item's label
stdout: b

* * *

experiment_summary: Cmax in C57BL/6J mouse at 30 mg/kg, po measured up to 24 hrs by LC-MS/MS analysis
Format: ADME, organism-based
Set-up: dose 30 mg/kg, time < 24 hrs, route po
test_conditions: in vivo
metric: Cmax (nM)

1: C=CCOc1ccc(C2CC(=O)Nc3nc(N)[nH]c(=O)c32)cc1OC (stereo not drawn)
2: Nc1nc2c(c(=O)[nH]1)C(c1cccc(OC(F)(F)F)c1)CC(=O)N2 (stereo not drawn)
3: CCOc1cccc(C2CC(=O)Nc3nc(N)[nH]c(=O)c32)c1 (stereo not drawn)
stdin: Rank by Cmax (largest to smallest). Thanks in advance for listing the labels in the requested order.
stdout: 2, 3, 1
(2: 20800 nM, 3: 1930 nM, 1: 790 nM)

* * *

experiment_summary: Half life in C57BL/6J mouse at 30 mg/kg, ip measured up to 24 hrs by LC-MS/MS analysis
Format: ADME, organism-based
test_conditions: in vivo
metric: half-life (h)

[
  {
    "molecule": "Nc1nc2c(c(=O)[nH]1)C(c1cccc(OC(F)(F)F)c1)CC(=O)N2 (stereo not drawn)",
    "metric": "half-life",
    "readout_units": "h",
    "val": 2.4
  },
  {
    "molecule": "CCOc1cccc(C2CC(=O)Nc3nc(N)[nH]c(=O)c32)c1 (stereo not drawn)",
    "metric": "half-life",
    "readout_units": "h",
    "val": 2.29
  },
  {
    "molecule": "C=CCOc1ccc(C2CC(=O)Nc3nc(N)[nH]c(=O)c32)cc1OC (stereo not drawn)",
    "metric": "half-life",
    "readout_units": "h",
    "val": 2.19
  }
]

* * *

experiment_summary: Tmax in C57BL/6J mouse at 30 mg/kg, po measured up to 24 hrs by LC-MS/MS analysis
Format: ADME, organism-based
test_conditions: in vivo
metric: Tmax (min)

[
  {
    "compound": "C=CCOc1ccc(C2CC(=O)Nc3nc(N)[nH]c(=O)c32)cc1OC (stereo not drawn)",
    "Tmax (min)": 30
  }
]

I: Nc1nc2c(c(=O)[nH]1)C(c1cccc(OC(F)(F)F)c1)CC(=O)N2 (stereo not drawn)
II: CCOc1cccc(C2CC(=O)Nc3nc(N)[nH]c(=O)c32)c1 (stereo not drawn)
stdin: I'm curious whether I or II has the smaller Tmax number. Which is it? # respond with the chosen item's label
stdout: II

* * *

experiment_summary: Metabolic stability in mouse liver microsomes assessed as parent compound remaining in presence of NADPH at 0.5 uM measured after 60 mins by LC-MS/MS analysis
Format: ADME, Microsome
test_conditions: read-out: Stability
metric: remaining at 1 h, 0.5 µM (%)

[
  {
    "compound": "Nc1nc2c(c(=O)[nH]1)C(c1cccc(OC(F)(F)F)c1)CC(=O)N2 (stereo not drawn)",
    "remaining at 1 h, 0.5 µM, %": 93
  },
  {
    "compound": "C=CCOc1ccc(C2CC(=O)Nc3nc(N)[nH]c(=O)c32)cc1OC (stereo not drawn)",
    "remaining at 1 h, 0.5 µM, %": 94
  },
  {
    "compound": "CCOc1cccc(C2CC(=O)Nc3nc(N)[nH]c(=O)c32)c1 (stereo not drawn)",
    "remaining at 1 h, 0.5 µM, %": 84
  }
]
